Each entry below carries its recorded GI50.
Tested on: SK-MEL-28
Assay Name: SRB colorimetric cell growth inhibition assay, SK-MEL-28
Format: cell-based
Assay Conditions: Homo sapiens, SK-MEL-28, MEL-28; GI=growth inhibition; read-out: GI50 MEL-28
Test Readout: GI50 (nM)

[[record]]
record_smiles = "COc1cc(-c2c3c4cc(OC)c(OC(=O)[C@@H](N)CC(C)C)cc4oc(=O)c3n3ccc4cc(OC(=O)[C@@H](N)CC(C)C)c(OC)cc4c23)ccc1OC(=O)[C@@H](N)CC(C)C"
recorded_value = 33.9

[[record]]
record_smiles = "COc1cc2c(cc1O)oc(=O)c1c2c(-c2cccc([N+](=O)[O-])c2)c2c3cc(OC)c(O)cc3ccn21"
recorded_value = 106

[[record]]
record_smiles = "COc1cc(-c2c3n(c4c(=O)oc5cc(OC(=O)[C@H](N)C(C)C)c(OC)cc5c24)CCc2cc(OC(=O)[C@H](N)C(C)C)c(OC)cc2-3)ccc1OC(=O)[C@H](N)C(C)C"
recorded_value = 1350

[[record]]
record_smiles = "CC[C@H](C)[C@H](NC(=O)OC(C)(C)C)C(=O)Oc1ccc(-c2c3c4cc(OC)c(OC(=O)[C@@H](NC(=O)OC(C)(C)C)[C@@H](C)CC)cc4oc(=O)c3n3ccc4cc(OC(=O)[C@@H](NC(=O)OC(C)(C)C)[C@@H](C)CC)c(OC)cc4c23)cc1OC"
recorded_value = 8780

[[record]]
record_smiles = "COc1cc(-c2c3c4cc(OC)c(OC(=O)[C@@H]5CCCN5)cc4oc(=O)c3n3ccc4cc(OC(=O)[C@@H]5CCCN5)c(OC)cc4c23)ccc1OC(=O)[C@@H]1CCCN1"
recorded_value = 13.4

